- TARGET OR SYSTEM: rat BMPR1B overexpressed on the surface of HEK293T cells (N-terminal Asp-Lys epitope tag, … (rat, UniProt A0A8I6A0G0 62-550))
- Sequence (chain, as listed by the source): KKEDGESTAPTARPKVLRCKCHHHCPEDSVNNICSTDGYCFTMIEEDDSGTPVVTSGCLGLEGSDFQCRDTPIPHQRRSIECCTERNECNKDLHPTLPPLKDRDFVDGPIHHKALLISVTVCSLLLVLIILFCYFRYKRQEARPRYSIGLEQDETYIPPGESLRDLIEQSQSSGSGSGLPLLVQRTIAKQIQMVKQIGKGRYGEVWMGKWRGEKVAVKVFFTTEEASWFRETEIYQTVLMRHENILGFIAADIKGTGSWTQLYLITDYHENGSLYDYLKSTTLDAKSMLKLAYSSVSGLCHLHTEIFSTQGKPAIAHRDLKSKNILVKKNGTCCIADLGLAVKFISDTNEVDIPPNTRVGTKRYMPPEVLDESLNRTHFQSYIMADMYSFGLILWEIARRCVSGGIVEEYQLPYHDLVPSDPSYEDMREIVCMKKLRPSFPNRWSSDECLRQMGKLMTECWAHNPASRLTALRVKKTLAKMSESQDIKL
- TEST DETAILS: cell-based or functional assay
A collection of binders and their measured % live, Fab-saporin, 100pM

BINDER	% live, Fab-saporin, 100pM [%]
SC91.9 (murine anti-BMPR1B antibody) (antibody, V domains shown, Murine hybridoma antibody) VH: QVQLQQPGAELVKPGASVKLSCKASGYTFISYWMHWVKQRPGQGLEWIGMIHPNSGSTNYNESFKSKATLTVDKSSSTAYMQLSSLTSEDSAVYYCARDLLIATVVVTPYFAYWGQGTILTVSS VL: DIQMTQTTSSLSASLGDRVTISCRASQDISNFLNWYQQKPDGTIKFLIYYTSRLHSGVPSRFSGSGSGTDYSLTIRNLEQEDIATYFCQQGNTLPYTFGGGTKLEIK	14.7
SC91.20 (antibody, V domains shown) VH: QVQLQQPGAEVVRPGASLKLSCKASGYTFTSYWMQWIKQRPGQGLEWIGEIDPSDNYTMYNQKFKGKATLTVDTSSSTAYMQLSSLTSEDSAVYFCARFGFYVDYWGQGTTLTVSS VL: DVVMTQTPLSLPVSLGDQASISCRSSQSLVHSTGNTYLHWYLQKPGQSPNLLIYKVSNRFSGVPDRFSGSGSGTDFTLKISRVEAEDLGVYFCSQSTHVPFTFGSGTKLEIK	18.2
SC91.19 (antibody, V domains shown) VH: QIQLVQSGPELKKPGETVKISCKASGYTFTTYGMNWVKQAPGKGLKWMGWINTYSGVPSSANDFKGRFAFSLETSASTAYLQINNLKNEDTATYFCARSELRNWYFDVWGTGTTVTVSS VL: SFVMTQTPKFLLVSAGDRVTITCKASQSVGNDVAWYQQKPGQSPKLLIYYASNRYTGVPDRFTGSGYGTDFTFTISTVQAEDLAVYFCQQDYSSPFTFGSGTKLEMK	102
SC91.11 (antibody, V domains shown) VH: QVQLQQPGAELVKPGASVKLSCKASGYTFTTYWMHWVKQRPGRGLEWIGRIDPNSGGTKYNEKFKSKATLTVDKPSSTACMQLSSLTSEDSAVYYCASRRGDIDVWGTGTTVTVSS VL: DIVMTQSQKFMSTSVGDRVSVTCKASQNVGTNVFWYQQKPGQSPKALIYAASYRYSGVPDRFTGSGSGTDFTLTISNVQSEDLADYFCQQYDSYPLTFGDGTKLELR	68.7
